Recorded Growth Rate for the following molecules
Test system: Fibroblast
Assay: Incucyte cell viability with human fibroblast; further: unitless GR value; below 1 slowed growth and below 0 cell loss
Format: toxicity, cell-based
Conditions: 6 h, 10 µM, compound concentration 10 uM, replicate number 2

- STRUCTURE AS SMILES: "O=C(O)Cc1cc(I)c(Oc2ccc(O)c(I)c2)c(I)c1"
  Growth Rate: 0.26
- STRUCTURE AS SMILES: "CC[C@H](C(=O)Nc1ccccc1N1CCCC1)c1ccccc1"
  Growth Rate: -0.59
- STRUCTURE AS SMILES: "CC(C)c1nc2c(c3c1[C@H](c1ccc(C(F)(F)F)cc1)OC31CCOCC1)[C@H](O)CC(C)(C)C2"
  Growth Rate: -0.98
- STRUCTURE AS SMILES: "CCc1cc2c(cc1N1CCC(N3CCOCC3)CC1)C(C)(C)c1[nH]c3cc(C#N)ccc3c1C2=O"
  Growth Rate: 0.58
- STRUCTURE AS SMILES: "CCN1C(=O)/C(=C(\\NC2CCN(C)CC2)c2ccc3c(c2)OCO3)c2cc(C(C)=O)ccc21"
  Growth Rate: 0.53
- STRUCTURE AS SMILES: "O=S(=O)(Nc1nnc2cc(OCC34CC5CC(CC(C5)C3)C4)c(C3CC3)cn12)C1CC1"
  Growth Rate: -1

* * *

Test system: HEK-293T
Assay: Incucyte cell viability with HEK293T; further: unitless GR value; below 1 slowed growth and below 0 cell loss
Format: toxicity, cell-based
Conditions: human, 12 h, 10 µM, compound concentration 10 uM, replicate number 2

- COMPOUND: "Cl.O=C(c1ccc(-c2ccc(Cl)cc2)o1)N(Cc1ccccn1)c1ccc(N2CCNCC2)cc1"
  Growth Rate: 0.52
- COMPOUND: "Cc1cc(OCCC(C)(C)O)cc(C)c1-c1ccc(F)c2c1CC[C@H]2Oc1ccc2c(c1)OC[C@H]2CC(=O)O"
  Growth Rate: 0.86
- COMPOUND: "O=C(Nc1ccc(Oc2ccc(Cl)cc2)c(Cl)c1)c1cc(I)cc(I)c1O [RAFOXANIDE]"
  Growth Rate: 0.91
- COMPOUND: "CN1CCN(c2ccc(-n3cc(-c4ccncc4OCC4CCNCC4)cn3)cc2)CC1"
  Growth Rate: 0.09
- COMPOUND: "CCN1CCN(Cc2ccc(C(=O)Nc3ccc(C)c(Oc4ccc5c(c4)CC(=O)N5)c3)cc2C(F)(F)F)CC1.Cl.Cl"
  Growth Rate: 0.11
- COMPOUND: "Cc1cccc(-c2nn3c(c2-c2ccnc4ccc(C(N)=O)cc24)CCC3)n1 [GALUNISERTIB]"
  Growth Rate: 0.74
- COMPOUND: "C1=Cc2ccccc2C(=C2CCN(CCCCc3nn[nH]n3)CC2)c2ccccc21"
  Growth Rate: 0.94
- COMPOUND: "C[S+](C)[O-] [DIMETHYL SULFOXIDE]"
  Growth Rate: 0.78
- COMPOUND: "C=CC(=O)Nc1ccc2[nH]c(=O)n(C3CCN(Cc4ccc(-c5ccc6c(c5)NC(=O)CO6)cc4)CC3)c2c1 [RL2578]"
  Growth Rate: 0.43
- COMPOUND: "CCS(=O)(=O)c1ccc(OC)c(Nc2ncc(-c3cccc(F)c3)o2)c1 [GW621970X]"
  Growth Rate: 0.2
- COMPOUND: "COc1cc(F)ccc1-c1cc(Nc2cc(CS(C)(=N)=O)ccn2)ncc1F (stereo unspecified) [ENITOCICLIB]"
  Growth Rate: -0.41
- COMPOUND: "CN[C@@H](C)C(=O)N[C@H](C(=O)N1CCC[C@H]1C(=O)N[C@@H]1CCCc2ccccc21)C1CCCCC1.Cl"
  Growth Rate: 0.9
- COMPOUND: "C=CC(=O)Nc1cccc(C(=O)Nc2ccc(NC(=O)c3cccc(-c4ccn[nH]4)n3)cc2)c1"
  Growth Rate: 0.37
- COMPOUND: "CN1CCN(C(=O)c2ccc3cc2OCCOCCNc2ccn4ncc-3c4n2)CC1"
  Growth Rate: 0.93
- COMPOUND: "COc1cnccc1Nc1nc(-c2nn(Cc3c(F)cc(OCCO)cc3F)c3ccccc23)ncc1OC"
  Growth Rate: -0.01
- COMPOUND: "CCOC(=O)c1cnn(-c2ccc(NC(=O)C(Cl)=C(Cl)Cl)cc2)c1C(F)(F)F"
  Growth Rate: -0.37
- COMPOUND: "O=C(O)C(F)(F)F.O=C1NC(=O)/C(=C/c2c[nH]c(=O)c(-c3ccc(N4CCNCC4)nc3)c2)S1"
  Growth Rate: 0.93
- COMPOUND: "CC(C)(C)C1CCc2c(sc(NC(=O)c3ccco3)c2C(=O)O)C1 (stereo unspecified)"
  Growth Rate: -0.11
- COMPOUND: "COc1cc(-c2nn([C@H]3CC[C@H](N4CCN(C(C)=O)CC4)CC3)c3ncnc(N)c23)ccc1NC(=O)c1cc2ccccc2n1C"
  Growth Rate: -0.18
- COMPOUND: "CCc1ncnc(N2CCN(C(C)=O)CC2)c1C#Cc1ccc(N)nc1.Cl.Cl"
  Growth Rate: -0.05
- COMPOUND: "CNC1(C)C2CCC(C2)C1(C)C.Cl (stereo unspecified) [MECAMYLAMINE HYDROCHLORIDE]"
  Growth Rate: 0.84
- COMPOUND: "CC(C)(O)c1cnc(N2C[C@@]3(CCC[C@](C)(Cn4cnc5ccc(C#N)cc54)C3)OC2=O)cn1 [GSK2798745]"
  Growth Rate: 0.41
- COMPOUND: "CC(=O)Oc1ccc2c(c1)[C@@]1(C)CCC[C@](C)(C(=O)OC(=O)[C@@]3(C)CCC[C@]4(C)c5cc(OC(C)=O)ccc5CC[C@@H]34)[C@@H]1CC2 [ACETYL PODOCARPIC ACID ANHYDRIDE]"
  Growth Rate: 0.36
- COMPOUND: "CC(C)(O)C(=O)N1CCN(c2ccc(C(F)(F)F)c(C3=C(c4c[nH]c5ccccc45)C(=O)NC3=O)c2)CC1"
  Growth Rate: 0.57
- COMPOUND: "O=C1CSC(=O)N1C(CCc1ccncc1)COc1ccc(-c2cccc([N+](=O)[O-])c2)cc1 (stereo unspecified)"
  Growth Rate: 0.27
- COMPOUND: "C[C@@]1(Cc2ccc(C#N)cc2)C(=O)N(c2cc(Cl)cc(Cl)c2)c2ncc(C(=O)NC3(c4nc(C5CCC5)no4)CC3)n21 [BI 9446]"
  Growth Rate: 0.74

Provenance of the data: ChEMBL document CHEMBL5303304
